System: iBMDM (immortalised mouse bone-marrow-derived macrophages), LPS-stimulated
Assay: mitochondrial superoxide (MitoSOX fluorescence) fold increase over unstimulated control; higher = more LPS-induced mitochondrial ROS (less inhibition)
Settings: inhibitor concentration: 500 nM; LPS: 100 ng/ml; time after LPS: 1 h
MEASURED PROPERTY: mitochondrial superoxide
Provide a numeric answer; units are not to be included.

Solved cases below.
Could you tell me which mitochondrial superoxide is on file for C[C@@H](Oc1cc(-c2cnn(C3CCNCC3)c2)cnc1N)c1c(Cl)ccc(F)c1Cl ?
1.39

Param item = CC(=O)Nc1nc(C)c(-c2ccc(Cl)c(S(=O)(=O)NCCO)c2)s1 ; retrieve measured mitochondrial superoxide.
1.02

Quick one: mitochondrial superoxide of COc1cc(N2CCC(N3CCN(C)CC3)CC2)ccc1Nc1ncc(Cl)c(Nc2ccccc2S(=O)(=O)C(C)C)n1 ?
1.24

I am curious: what mitochondrial superoxide value has been reported for Cc1[nH]nc2ccc(-c3cncc(OC[C@@H](N)Cc4ccccc4)c3)cc12 ?
1.24

Would you mind telling me what mitochondrial superoxide value was observed for CCC(=O)Nc1cccc(Oc2nc(Nc3ccc(N4CCN(C)CC4)cc3OC)ncc2Cl)c1 ?
1.39

For the compound COc1cc2ncnc(Nc3ccc(Cl)cc3F)c2cc1OC , what mitochondrial superoxide is on record?
1.12

More entries:
Quick one: mitochondrial superoxide of Nc1nc(Nc2ccc(S(N)(=O)=O)cc2)nn1C(=O)c1c(F)cccc1F ?
1.15

Would you mind telling me what mitochondrial superoxide value was observed for COc1cc(Nc2ncc(F)c(Nc3ccc4c(n3)N(COP(=O)(O)O)C(=O)C(C)(C)O4)n2)cc(OC)c1OC [Fostamatinib (R788)] ?
1.29

Entry under review: CC(C)n1nc(-c2cc3cc(O)ccc3[nH]2)c2c(N)ncnc21 . Reported mitochondrial superoxide?
1.03

---

System: iBMDM (immortalised mouse bone-marrow-derived macrophages), LPS-stimulated
Assay: mitochondrial superoxide (MitoSOX fluorescence) fold increase over unstimulated control; higher = more LPS-induced mitochondrial ROS (less inhibition)
Conditions: inhibitor concentration: 500 nM; LPS: 100 ng/ml; time after LPS: 1 h
The reader will find reported mitochondrial superoxide values listed item by item below.
In your answer, state the number alone without any accompanying words.

Solved entries (count: 5):
Reported mitochondrial superoxide for Cc1ccc(C(=O)Nc2cccc(C(F)(F)F)c2)cc1Nc1nc(-c2cccnc2)nc2c1cnn2C : what is it?
1.23

Please give the measured mitochondrial superoxide for this molecule: Cc1ccc(F)c(NC(=O)Nc2ccc(-c3cccc4[nH]nc(N)c34)cc2)c1
1.66

Query (molecule): Cc1ccc2nc(NCCN)c3ncc(C)n3c2c1 ; field requested: mitochondrial superoxide
1.43

Any idea what its mitochondrial superoxide is? The molecule is COc1cc2nccc(Oc3ccc(NC(=O)Nc4cc(C)on4)c(Cl)c3)c2cc1OC
1.14

State the recorded mitochondrial superoxide for this entry: c1cncc(CN2CCC(n3ncc4c(N5CCOCC5)nc(-c5ccc6[nH]ccc6c5)nc43)CC2)c1
1.34

Others:
If you can, please state the reported mitochondrial superoxide value of C=CC(=O)Nc1ccc2ncnc(Nc3cccc(Br)c3)c2c1 .
1.12

Can you look up the measured mitochondrial superoxide of COc1cc2ncnc(Oc3cccc(NC(=O)Nc4cc(C(C)(C)C(F)(F)F)on4)c3)c2cc1OC for me?
1.36

What value of mitochondrial superoxide has been reported for the following molecule? CNC(=O)Nc1ccc(-c2nc(N3CC4CCC(C3)O4)c3cnn(C4CCC5(CC4)OCCO5)c3n2)cc1
1.26

What mitochondrial superoxide value was documented for this molecule, CCc1ccc(/C=C2/SC(=S)NC2=O)cc1 ?
1.14

---

Tested on: iBMDM (immortalised mouse bone-marrow-derived macrophages), LPS-stimulated
Assay: mitochondrial superoxide (MitoSOX fluorescence) fold increase over unstimulated control; higher = more LPS-induced mitochondrial ROS (less inhibition)
Conditions: inhibitor concentration: 500 nM; LPS: 100 ng/ml; time after LPS: 2 h
MEASURED PROPERTY: mitochondrial superoxide
Kindly provide the number alone.

Solved cases below.
What value of mitochondrial superoxide has been reported for the following compound? COc1ccc(Cl)cc1NC(=O)Nc1cc(C)nc2ccccc12
1.55

Look up mitochondrial superoxide for this compound: CC(=O)Nc1nc(C)c(-c2ccc(Cl)c(S(=O)(=O)NCCO)c2)s1
1.15

Given the compound CNC(=O)c1cc(Oc2ccc(NC(=O)Nc3ccc(Cl)c(C(F)(F)F)c3)c(F)c2)ccn1 , what is its reported mitochondrial superoxide?
1.68

Consider the compound shown here: O=C(NOCC1CC1)c1ccc(F)c(F)c1Nc1ccc(I)cc1Cl What is its recorded mitochondrial superoxide?
1.59

Given the compound CN(C)C/C=C/C(=O)Nc1cc2c(Nc3ccc(F)c(Cl)c3)ncnc2cc1O[C@H]1CCOC1 , what is its reported mitochondrial superoxide?
1.6

Any idea what its mitochondrial superoxide is? The compound is Cc1cn(-c2cc(NC(=O)c3ccc(C)c(Nc4nccc(-c5cccnc5)n4)c3)cc(C(F)(F)F)c2)cn1
1.53

New cases:
# input compound: CCc1cc2c(cc1N1CCC(N3CCOCC3)CC1)C(C)(C)c1[nH]c3cc(C#N)ccc3c1C2=O ; wanted: its mitochondrial superoxide
1.4

Need mitochondrial superoxide of COc1cc(CCc2cc(NC(=O)c3ccc(N4CC(C)NC(C)C4)cc3)n[nH]2)cc(OC)c1 (centres undefined) , thanks.
1.42

Quick check: mitochondrial superoxide of CC(C)n1nc(-c2cc3cc(O)ccc3[nH]2)c2c(N)ncnc21 ?
1.15

Can you look up the measured mitochondrial superoxide of CCCCOc1c(C(=O)c2c(F)cc(C)cc2F)c[nH]c2nncc1-2 for me?
1.25

---

Test system: iBMDM (immortalised mouse bone-marrow-derived macrophages), LPS-stimulated
Test: mitochondrial superoxide (MitoSOX fluorescence) fold increase over unstimulated control; higher = more LPS-induced mitochondrial ROS (less inhibition)
Details: inhibitor concentration: 500 nM; LPS: 100 ng/ml; time after LPS: 1 h
Where a name gives a salt, the structure may show the parent alone.
This listing pairs molecules with measured mitochondrial superoxide.
Lab note: record just the number, no unit beside it.

Check out these entries, answers already filled in.
Endpoint output: mitochondrial superoxide of Nc1nc(N)c2nc(-c3cccc(O)c3)c(-c3cccc(O)c3)nc2n1 . Value?
1.18

Requested field: mitochondrial superoxide. Item: O=C(/C=C/c1ccc(O)c(O)c1)c1ccc(O)cc1O [Butein]
1.49

# lookup: mitochondrial superoxide of COc1cc2c(Oc3ccc(NC(=O)C4(C(=O)Nc5ccc(F)cc5)CC4)cc3F)ccnc2cc1OCCCN1CCOCC1
1.25

Given the molecule O=C1C(c2c(O)[nH]c3ccccc23)=Nc2ccccc21 [Indirubin] , what is its reported mitochondrial superoxide?
1.22

New cases:
Which mitochondrial superoxide value belongs to CNC(=O)c1ccccc1Sc1ccc2c(/C=C/c3ccccn3)n[nH]c2c1 [Axitinib] ?
1.77

Fill in: mitochondrial superoxide of Cc1c(Cn2c(C)nc3c(C(=O)O)cc(N4CCOCC4)cc32)cccc1C(F)(F)F is ___
1.39

Recorded mitochondrial superoxide for O=S(=O)(c1cccc2cnccc12)N1CCCNCC1 [Fasudil (HA-1077) HCl] , please?
1.03

mitochondrial superoxide for CCN(CC)CCCCNc1ncc2cc(-c3cc(OC)cc(OC)c3)c(NC(=O)NC(C)(C)C)nc2n1 ?
1.16

State the recorded mitochondrial superoxide for this entry: Cc1cc2c(F)c(Oc3ncnn4cc(OC[C@@H](C)O)c(C)c34)ccc2[nH]1
1.34

Quick one: mitochondrial superoxide of O=C(NOCC(O)CO)c1cc(Br)c(F)c(F)c1Nc1ccc(I)cc1F (centres undefined) ?
1.31

---

Tested on: iBMDM (immortalised mouse bone-marrow-derived macrophages), LPS-stimulated
Experiment: mitochondrial superoxide (MitoSOX fluorescence) fold increase over unstimulated control; higher = more LPS-induced mitochondrial ROS (less inhibition)
Details: inhibitor concentration: 500 nM; LPS: 100 ng/ml; time after LPS: 1 h
MEASURED PROPERTY: mitochondrial superoxide
Form: value (number only, do not type unit).

Some compounds with recorded mitochondrial superoxide:
What value of mitochondrial superoxide has been reported for the following compound? COc1ccc(-c2ccc3ncc4c(c3c2)n(-c2ccc(N3CCNCC3)c(C(F)(F)F)c2)c(=O)n4C)cn1
1.1

Could you share which mitochondrial superoxide value was measured for Nc1nc(N)c(N=O)c(OCC2CCCCC2)n1 ?
1.17

Recorded mitochondrial superoxide for Cc1cc(Nc2cc(N3CCN(C)CC3)nc(/C=C/c3ccccc3)n2)n[nH]1 , please?
1.19

Fill in the blank: the reported mitochondrial superoxide of CCn1c(-c2nonc2N)nc2c(C#CC(C)(C)O)ncc(OC[C@H]3CCCNC3)c21 is ____.
1.3

Would you kindly share the measured mitochondrial superoxide for COc1ccc(COc2cc3oc(=O)c4cc(C(C)O)ccc4c3cc2OC)cc1 (centres undefined) ?
1.1

Which mitochondrial superoxide value is on record for CN(C)C/C=C/C(=O)Nc1cc2c(Nc3ccc(F)c(Cl)c3)ncnc2cc1O[C@H]1CCOC1 ?
1.54

For the compound shown here, CCC(=O)N1CCN(c2ccc(-n3c(=O)ccc4cnc5ccc(-c6cnc7ccccc7c6)cc5c43)cc2C(F)(F)F)CC1 , give the reported mitochondrial superoxide.
1.14

Please give the measured mitochondrial superoxide for this compound: O=c1cc(N2CCOCC2)oc2c(-c3ccccc3)cccc12
1.36

Next compound, please.
Can you look up the measured mitochondrial superoxide of Oc1ccc(-c2nc(-c3ccc(F)cc3)c(-c3ccncc3)[nH]2)cc1 for me?
1.32
